For each record, write down the corresponding IC50.
System: HT-29
assay-method-text: Cytotoxicity against human HT-29 cells assessed as reduction in cell viability after 72 hrs by MTT assay
Type: functional, cell-based
condition-description: HT-29, 72 h
Counter-ions that a name gives are not always drawn.
One number for each entry, in µM.

Sample records with IC50:
molecule	unit-string	IC50
C=CC[C@H]1OC(=O)CCNC(=O)[C@H](C)N(C)C(=O)[C@H](C(C)C)N(C)C(=O)[C@H](C(C)C)NC(=O)[C@@H]2[C@@H](C)CCN2C1=O	µM	7.8
CC(C)[C@@H]1NC(=O)[C@@H]2[C@@H](C)CCN2C(=O)[C@@H](C[C@@H](O)CO)OC(=O)CCNC(=O)[C@H](C)N(C)C(=O)[C@H](C(C)C)N(C)C1=O	µM	16.7
CC(C)C[C@H]1OC(=O)CCNC(=O)[C@H](C)N(C)C(=O)[C@H](C(C)C)N(C)C(=O)[C@H](C(C)C)NC(=O)[C@@H]2[C@@H](C)CCN2C1=O	µM	3.4

Proceeding to the next molecule to report its IC50.
Query: Entry under review: COc1cccc2c1C(=O)c1c(O)c3c(c(O)c1C2=O)C[C@@](O)(C(=O)CO)C[C@@H]3O[C@H]1C[C@H](N)[C@H](O)[C@H](C)O1 [DOXORUBICIN HYDROCHLORIDE] . Reported IC50?
Response: 1.8
